Would you kindly list SPOT peptide array binding signal intensity for each of these binders?
Assay Target: CaCyk3
Test Method Notes: SPOT peptide array binding signal intensity (averaged, normalized) (arbitrary units (background-subtracted, floor 0; scale differs between SH3 domains)); higher = stronger binding of the SH3 domain to the peptide
Response field accepts a number only; no unit should be typed.

# input binder: `STKKPRPPVKSKPKH` ; wanted: its SPOT peptide array binding signal intensity
2

# input binder: `TTNRGPPPLPPRANV` ; wanted: its SPOT peptide array binding signal intensity
10.5

# input binder: `IKKRNKIRLPSGSPE` ; wanted: its SPOT peptide array binding signal intensity
17

# input binder: `RLPAPPPPPRRGPAP` ; wanted: its SPOT peptide array binding signal intensity
326

# input binder: `KRKRFNLLLPKPYLT` ; wanted: its SPOT peptide array binding signal intensity
5

# input binder: `NHSRSLFSLPGNQQS` ; wanted: its SPOT peptide array binding signal intensity
1.5

# input binder: `GLRRARYKFPGQQKI` ; wanted: its SPOT peptide array binding signal intensity
20.5

# input binder: `GTIARPLFLVVLFFI` ; wanted: its SPOT peptide array binding signal intensity
10

# input binder: `KLSRGRYGLPLSSRP` ; wanted: its SPOT peptide array binding signal intensity
6.5

# input binder: `SSSSSPPPLPTRRDH` ; wanted: its SPOT peptide array binding signal intensity
2

// provenance: the supplement of paper PMC4466140
